# experimental_system: T1, human GPVI on platelets (human, UniProt Q9HCN6 21-339)
# T1 sequence (looked up): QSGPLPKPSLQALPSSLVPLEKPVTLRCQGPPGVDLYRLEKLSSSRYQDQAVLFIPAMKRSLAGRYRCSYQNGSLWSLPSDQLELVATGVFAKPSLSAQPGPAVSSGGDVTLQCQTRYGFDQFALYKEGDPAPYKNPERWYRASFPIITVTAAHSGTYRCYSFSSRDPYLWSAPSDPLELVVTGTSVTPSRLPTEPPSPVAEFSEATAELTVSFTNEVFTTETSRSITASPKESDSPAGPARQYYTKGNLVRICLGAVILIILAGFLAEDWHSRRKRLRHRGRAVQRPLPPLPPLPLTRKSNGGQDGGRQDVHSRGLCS
# assay_summary: cell-based or functional assay
parameter: IC50 for inhibition of collagen induced platelet aggregation (human PRP), Test 3 (µg/mL)
Please give a number only; it is taken to be in µg/mL.

| binder | endpoint_result |
| --- | --- |
| humanized anti-GPVI Fab VL2/VH2 (Fab, V domains shown, Recombinant Fab: VH fused to CH1 of human IGHG1 (Q569F4), HC ends in DKTHT; VL fused to human constant kappa (Q502W4); also called VL2 with VH2) VH: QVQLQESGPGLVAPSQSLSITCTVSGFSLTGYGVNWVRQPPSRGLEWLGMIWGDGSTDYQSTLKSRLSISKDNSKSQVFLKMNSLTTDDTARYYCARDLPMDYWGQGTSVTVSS VL: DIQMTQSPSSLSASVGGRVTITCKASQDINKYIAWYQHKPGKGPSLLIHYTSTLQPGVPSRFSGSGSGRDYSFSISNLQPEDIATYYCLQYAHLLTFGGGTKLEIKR | 2.3 |
| humanized anti-GPVI Fab VL1/VH3 (Fab, V domains shown, Recombinant Fab: VH fused to CH1 of human IGHG1 (Q569F4), HC ends in DKTHT; VL fused to human constant kappa (Q502W4); also called VL1 with VH3) VH: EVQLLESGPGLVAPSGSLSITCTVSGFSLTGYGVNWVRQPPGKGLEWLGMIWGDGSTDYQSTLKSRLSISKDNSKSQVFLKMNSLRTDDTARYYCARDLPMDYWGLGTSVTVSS VL: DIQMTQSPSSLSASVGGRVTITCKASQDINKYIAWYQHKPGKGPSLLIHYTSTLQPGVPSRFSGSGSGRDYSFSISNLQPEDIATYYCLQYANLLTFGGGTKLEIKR | 1.5 |
| humanized anti-GPVI Fab VL1/VH2 (Fab, V domains shown, Recombinant Fab: VH fused to CH1 of human IGHG1 (Q569F4), HC ends in DKTHT; VL fused to human constant kappa (Q502W4); also called VL1 with VH2) VH: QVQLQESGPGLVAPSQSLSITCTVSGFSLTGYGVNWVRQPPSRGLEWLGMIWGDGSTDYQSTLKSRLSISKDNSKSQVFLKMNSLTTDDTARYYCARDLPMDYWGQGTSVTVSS VL: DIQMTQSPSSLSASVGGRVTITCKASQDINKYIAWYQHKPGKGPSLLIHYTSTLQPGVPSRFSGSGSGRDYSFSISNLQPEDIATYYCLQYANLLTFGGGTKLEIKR | 1.1 |

Input: Look up IC50 for inhibition of collagen induced platelet aggregation (human PRP), Test 3: humanized anti-GPVI Fab VL3/VH4 (Fab, V domains shown, Recombinant Fab: VH fused to CH1 of human IGHG1 (Q569F4), HC ends in DKTHT; also called VL3 with VH4) VH: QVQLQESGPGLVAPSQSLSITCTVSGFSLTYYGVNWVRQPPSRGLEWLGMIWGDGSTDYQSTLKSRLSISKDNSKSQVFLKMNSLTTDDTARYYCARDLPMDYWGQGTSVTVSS VL: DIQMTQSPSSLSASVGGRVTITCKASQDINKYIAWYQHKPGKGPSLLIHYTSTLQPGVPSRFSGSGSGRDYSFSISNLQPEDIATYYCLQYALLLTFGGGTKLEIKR
Output: 2
